Target: Recombinant human MALT-1 (amino acids 340-824) (Homo sapiens (Human), UniProt Q9UDY8)
Sequence (Q9UDY8 340-824): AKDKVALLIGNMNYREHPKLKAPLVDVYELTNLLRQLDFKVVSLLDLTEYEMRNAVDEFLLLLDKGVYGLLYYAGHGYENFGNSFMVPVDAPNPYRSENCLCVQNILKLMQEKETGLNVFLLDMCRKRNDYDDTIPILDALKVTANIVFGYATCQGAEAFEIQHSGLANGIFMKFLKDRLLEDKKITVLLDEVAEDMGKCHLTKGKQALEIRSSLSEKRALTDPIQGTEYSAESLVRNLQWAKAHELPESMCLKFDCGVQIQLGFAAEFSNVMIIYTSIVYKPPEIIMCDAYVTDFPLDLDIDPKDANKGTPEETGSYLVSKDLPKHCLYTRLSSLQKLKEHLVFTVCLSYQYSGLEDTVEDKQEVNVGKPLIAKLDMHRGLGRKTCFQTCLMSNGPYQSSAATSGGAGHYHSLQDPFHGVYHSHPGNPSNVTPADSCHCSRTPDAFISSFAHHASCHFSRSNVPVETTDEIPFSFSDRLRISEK
Assay: MALT-1 inhibition assay (fluorogenic substrate Ac-LRSR-Rh110-DP)
Conditions: recombinant human MALT-1, substrate Ac-LRSR-Rh110-DP
pIC50: −log10 of the molar value.
Classify as follows. Reported pIC50 greater than or equal to 7: true (1). Reported pIC50 below: false (0).

// known answers, use as guide
COc1ccc2ncc(N(C)c3ccc([C@H](N(C)C(=O)C4CCS(=O)(=O)CC4)C(F)(F)F)cc3)cc2n1    false (0)
CC1CCN(c2ccc([C@H](N(C)C(=O)[C@H]3CC[S@](=N)(=O)CC3)C(F)(F)F)cc2)c2cnc3cc(Cl)nn3c21 (stereo partly drawn)    true (1)
CN(C(=O)[C@H]1CNC(=O)O1)[C@@H](c1ccc(N2CCCc3c2cnc2cc(Cl)nn32)cc1)C(F)(F)F (single isomer, unassigned)    true (1)

Continue with the compound presented below.
Please tell me: is the compound CO[C@@H](C)c1c(Nc2ccc([C@H](N(C)C(=O)[C@H]3CCC(=O)N3)C(F)(F)F)cc2)cnn2cc(Cl)nc12 at or over 7 in terms of pIC50? true (1)
